assayed target: Complex of Sliding-clamp-loader large subunit [R175L] and Sliding-clamp-loader small subunit (Enterobacteria phage T4, UniProt P04526, R175L)
protocol notes: colorimetric ATPase assay
setup conditions: pH 7.5; 25 °C
pKi: −log10 of the molar value.
Parameter threshold = 5. Response is yes when pKi meets or exceeds it, else no.

Query: Item Nc1ncnc2c1ncn2C1OC(COP(=O)(O)OP(=O)(O)OP(O)(O)=S)[C@@H](O)[C@H]1O (stereo not given in full) with pKi of 5 or above?
Response: no

Query: Item O=[N+]([O-])c1cccc2c1ccn2[C@H]1C[C@H](O)[C@@H](COP(=O)(O)OP(=O)(O)OP(=O)(O)O)O1 with pKi of 5 or above?
Response: no

Query: Item C=Cc1ccc2c(ccn2[C@H]2C[C@H](O)[C@@H](COP(=O)(O)OP(=O)(O)OP(=O)(O)O)O2)c1 with pKi of 5 or above?
Response: no

Query: Item O=[N+]([O-])c1ccc2ccn([C@H]3C[C@H](O)[C@@H](COP(=O)(O)OP(=O)(O)OP(=O)(O)O)O3)c2c1 with pKi of 5 or above?
Response: yes

###

assayed target: Sliding-clamp-loader large/small subunit (Enterobacteria phage T4, UniProt P04526+P04527)
Sequence (P04526 whole entry): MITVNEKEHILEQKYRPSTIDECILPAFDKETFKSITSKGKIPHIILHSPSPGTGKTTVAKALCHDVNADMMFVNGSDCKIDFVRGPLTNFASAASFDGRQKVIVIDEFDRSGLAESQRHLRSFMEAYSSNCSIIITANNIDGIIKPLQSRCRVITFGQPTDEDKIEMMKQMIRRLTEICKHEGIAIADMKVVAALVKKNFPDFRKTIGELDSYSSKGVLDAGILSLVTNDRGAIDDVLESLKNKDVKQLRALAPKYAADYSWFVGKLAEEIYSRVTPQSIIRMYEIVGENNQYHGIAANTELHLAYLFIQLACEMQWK
Sequence (P04527 whole entry): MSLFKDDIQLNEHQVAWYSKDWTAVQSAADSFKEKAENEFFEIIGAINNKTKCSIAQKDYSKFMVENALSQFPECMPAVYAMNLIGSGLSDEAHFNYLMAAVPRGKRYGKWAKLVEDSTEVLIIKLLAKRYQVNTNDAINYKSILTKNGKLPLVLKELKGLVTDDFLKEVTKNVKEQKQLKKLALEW
protocol notes: colorimetric ATPase assay
setup conditions: pH 7.5; 25 °C
Catalogue of pKi readings, one per entry.
Entry type: numeric. Quantity: pKi, the -log10 of concentration in molar units.

Take a look at these entries with their results.
[
  {
    "compound": "O=P(O)(O)OP(=O)(O)OP(=O)(O)OC[C@H]1O[C@@H](n2ccc3cc(C4CCCCC4)ccc32)C[C@@H]1O",
    "pKi": 4.32
  },
  {
    "compound": "O=P(O)(O)OP(=O)(O)OP(=O)(O)OC[C@H]1O[C@@H](n2ccc3cc(-c4ccccc4)ccc32)C[C@@H]1O",
    "pKi": 4.38
  },
  {
    "compound": "O=[N+]([O-])c1ccc2ccn([C@H]3C[C@H](O)[C@@H](COP(=O)(O)OP(=O)(O)OP(=O)(O)O)O3)c2c1",
    "pKi": 5.29
  },
  {
    "compound": "Nc1ncnc2c1ncn2C1OC(COP(=O)(O)OP(=O)(O)OP(O)(O)=S)[C@@H](O)[C@H]1O (stereo not given in full) [ATP{gamma}S]",
    "pKi": 4.54
  },
  {
    "compound": "O=[N+]([O-])c1cccc2c1ccn2[C@H]1C[C@H](O)[C@@H](COP(=O)(O)OP(=O)(O)OP(=O)(O)O)O1",
    "pKi": 4.47
  }
]

Query: Quick check: pKi of CCc1ccc2c(ccn2[C@H]2C[C@H](O)[C@@H](COP(=O)(O)OP(=O)(O)OP(=O)(O)O)O2)c1 ?
Response: 4.09

Query: Quick check: pKi of O=P(O)(O)OP(=O)(O)OP(=O)(O)OC[C@H]1O[C@@H](n2ccc3cc(C4=CCCCC4)ccc32)C[C@@H]1O ?
Response: 5.00

###

assayed target: DNA polymerase III subunit tau (Escherichia coli, UniProt P06710)
Sequence (P06710 whole entry): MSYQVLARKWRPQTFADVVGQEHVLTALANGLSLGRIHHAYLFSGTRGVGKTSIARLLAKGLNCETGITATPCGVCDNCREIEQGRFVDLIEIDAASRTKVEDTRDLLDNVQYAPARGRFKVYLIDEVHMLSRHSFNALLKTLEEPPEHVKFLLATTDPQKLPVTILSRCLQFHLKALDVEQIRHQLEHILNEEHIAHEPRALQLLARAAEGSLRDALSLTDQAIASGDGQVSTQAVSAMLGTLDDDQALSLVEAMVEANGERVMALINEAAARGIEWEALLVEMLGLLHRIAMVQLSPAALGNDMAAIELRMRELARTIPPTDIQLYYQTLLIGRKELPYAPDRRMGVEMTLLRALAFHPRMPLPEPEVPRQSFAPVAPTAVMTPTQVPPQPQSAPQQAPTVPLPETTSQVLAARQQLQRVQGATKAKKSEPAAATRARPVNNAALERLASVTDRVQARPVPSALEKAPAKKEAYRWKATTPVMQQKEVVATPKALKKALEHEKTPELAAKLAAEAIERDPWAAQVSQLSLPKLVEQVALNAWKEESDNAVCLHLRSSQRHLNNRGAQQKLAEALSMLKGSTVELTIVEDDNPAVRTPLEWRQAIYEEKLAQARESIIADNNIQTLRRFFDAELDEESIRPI
protocol notes: colorimetric ATPase assay
setup conditions: pH 7.5; 37 °C
endpoint: pKi
Entry type: numeric. Quantity: pKi, the -log10 of concentration in molar units.

[
  {
    "compound": "O=[N+]([O-])c1ccc2c(ccn2[C@H]2C[C@H](O)[C@@H](COP(=O)(O)OP(=O)(O)OP(=O)(O)O)O2)c1",
    "assayed target": "DNA polymerase III subunit tau (Escherichia coli, UniProt P06710)",
    "pKi": 4.66
  },
  {
    "compound": "O=[N+]([O-])c1ccc2ccn([C@H]3C[C@H](O)[C@@H](COP(=O)(O)OP(=O)(O)OP(=O)(O)O)O3)c2c1",
    "assayed target": "DNA polymerase III subunit tau (Escherichia coli, UniProt P06710)",
    "pKi": 5.09
  },
  {
    "compound": "O=[N+]([O-])c1cccc2c1ccn2[C@H]1C[C@H](O)[C@@H](COP(=O)(O)OP(=O)(O)OP(=O)(O)O)O1",
    "assayed target": "DNA polymerase III subunit tau (Escherichia coli, UniProt P06710)",
    "pKi": 4.95
  }
]

Read the next record carefully.
Query: Quick check: pKi of Nc1ncnc2c1ncn2C1OC(COP(=O)(O)OP(=O)(O)OP(O)(O)=S)[C@@H](O)[C@H]1O (some centres undefined) ?
Response: 4.89

###

assayed target: Complex of Sliding-clamp-loader large subunit [R175K] and Sliding-clamp-loader small subunit (Enterobacteria phage T4, UniProt P04526, R175K)
protocol notes: colorimetric ATPase assay
setup conditions: pH 7.5; 25 °C
Catalogue of pKi readings, one per entry.
Entry type: numeric. Quantity: pKi, the -log10 of concentration in molar units.

Take a look at these entries with their results.
[
  {
    "compound": "C=Cc1ccc2c(ccn2[C@H]2C[C@H](O)[C@@H](COP(=O)(O)OP(=O)(O)OP(=O)(O)O)O2)c1",
    "measured number": 4.58
  },
  {
    "compound": "O=[N+]([O-])c1ccc2ccn([C@H]3C[C@H](O)[C@@H](COP(=O)(O)OP(=O)(O)OP(=O)(O)O)O3)c2c1",
    "measured number": 5.04
  },
  {
    "compound": "Nc1ncnc2c1ncn2C1OC(COP(=O)(O)OP(=O)(O)OP(O)(O)=S)[C@@H](O)[C@H]1O (stereo not given in full) [ATP{gamma}S]",
    "measured number": 4.85
  },
  {
    "compound": "CCc1ccc2c(ccn2[C@H]2C[C@H](O)[C@@H](COP(=O)(O)OP(=O)(O)OP(=O)(O)O)O2)c1",
    "measured number": 4.60
  }
]

Query: Quick check: pKi of O=[N+]([O-])c1cccc2c1ccn2[C@H]1C[C@H](O)[C@@H](COP(=O)(O)OP(=O)(O)OP(=O)(O)O)O1 ?
Response: 4.52

###

Catalogue of pKi readings, one per entry.
assayed target: DNA polymerase III subunit tau (Escherichia coli)
protocol notes: colorimetric ATPase assay
setup conditions: pH 7.5; 37 °C
Entry type: numeric. Quantity: pKi, the -log10 of concentration in molar units.

Take a look at these entries with their results.
[
  {
    "structure smiles string": "O=P(O)(O)OP(=O)(O)OP(=O)(O)OC[C@H]1O[C@@H](n2ccc3cc(C4=CCCCC4)ccc32)C[C@@H]1O",
    "measured number": 4.93
  },
  {
    "structure smiles string": "CCc1ccc2c(ccn2[C@H]2C[C@H](O)[C@@H](COP(=O)(O)OP(=O)(O)OP(=O)(O)O)O2)c1",
    "measured number": 5.05
  },
  {
    "structure smiles string": "O=P(O)(O)OP(=O)(O)OP(=O)(O)OC[C@H]1O[C@@H](n2ccc3cc(C4CCCCC4)ccc32)C[C@@H]1O",
    "measured number": 4.62
  }
]

Read the next record carefully.
Query: Quick check: pKi of O=P(O)(O)OP(=O)(O)OP(=O)(O)OC[C@H]1O[C@@H](n2ccc3cc(-c4ccccc4)ccc32)C[C@@H]1O ?
Response: 5.12

###

assayed target: DNA polymerase III subunit tau (Escherichia coli, UniProt P06710)
protocol notes: colorimetric ATPase assay
setup conditions: pH 7.5; 37 °C
endpoint: Ki
Kindly report the value followed by its unit.

Take a look at these entries with their results.
[
  {
    "structure smiles string": "C=Cc1ccc2c(ccn2[C@H]2C[C@H](O)[C@@H](COP(=O)(O)OP(=O)(O)OP(=O)(O)O)O2)c1",
    "Ki": "30 µM"
  },
  {
    "structure smiles string": "O=P(O)(O)OP(=O)(O)OP(=O)(O)OC[C@H]1O[C@@H](n2ccc3cc(F)ccc32)C[C@@H]1O",
    "Ki": "34 µM"
  }
]

Query: Value wanted: Ki (DNA polymerase III subunit tau (Escherichia coli, UniProt P06710)) of entry Nc1ccc2c(ccn2[C@H]2C[C@H](O)[C@@H](COP(=O)(O)OP(=O)(O)OP(=O)(O)O)O2)c1
Response: 45 µM

###

assayed target: Sliding-clamp-loader large/small subunit (Enterobacteria phage T4, UniProt P04526+P04527)
protocol notes: colorimetric ATPase assay
setup conditions: pH 7.5; 25 °C
endpoint: Ki

[
  {
    "structure smiles string": "O=P(O)(O)OP(=O)(O)OP(=O)(O)OC[C@H]1O[C@@H](n2ccc3cc(F)ccc32)C[C@@H]1O",
    "result": "> 200 µM"
  },
  {
    "structure smiles string": "Nc1ccc2c(ccn2[C@H]2C[C@H](O)[C@@H](COP(=O)(O)OP(=O)(O)OP(=O)(O)O)O2)c1",
    "result": "> 200 µM"
  }
]

Read the next record carefully.
Query: Quick check: Ki of C=Cc1ccc2c(ccn2[C@H]2C[C@H](O)[C@@H](COP(=O)(O)OP(=O)(O)OP(=O)(O)O)O2)c1 ?
Response: > 200 µM
